These measurements were taken from patent US11591323B2.

biological target: M4 muscarinic receptor (Homo sapiens, UniProt P08173); test: inhibition of forskolin-stimulated cAMP, M4 CHO cells (M4Gi); format: cell-based; design: host or cells: CHO cells, stably transfected; conditions: M4 (↓cAMP), preferential response, Table 7; operational model; read-out: pKA (converted)
Test Readout: Kd (µM)
The answer is to be given in µM; state only the numeric part.

Compound	Kd / µM
C[N+]1(Cc2ccc(Br)s2)CC=CCC1.[I-] (stereo not drawn)	2.51

In: Answer with the recorded Kd for the compound listed here: Cc1ccc(C[N+]2(C)CC=CCC2)s1.[I-] (stereo not drawn)
Out: 3.98

In: # return recorded Kd for entry Brc1ccc(CN2CC=CCC2)s1.Cl
Out: 2.51

In: # return recorded Kd for entry Cc1ccc(CN2CC=CCC2)s1.Cl
Out: 12.6

In: Entry C1=CCN(Cc2cccs2)CC1.Cl needs its Kd filled in; supply it.
Out: 6.31

In: // fetch Kd given entry C[N+]1(Cc2cccs2)CC=CCC1.[I-] (stereo not drawn)
Out: 3.16

###

Biological target: M5 muscarinic receptor (Homo sapiens, UniProt P08912)
Sequence (P08912 1-532): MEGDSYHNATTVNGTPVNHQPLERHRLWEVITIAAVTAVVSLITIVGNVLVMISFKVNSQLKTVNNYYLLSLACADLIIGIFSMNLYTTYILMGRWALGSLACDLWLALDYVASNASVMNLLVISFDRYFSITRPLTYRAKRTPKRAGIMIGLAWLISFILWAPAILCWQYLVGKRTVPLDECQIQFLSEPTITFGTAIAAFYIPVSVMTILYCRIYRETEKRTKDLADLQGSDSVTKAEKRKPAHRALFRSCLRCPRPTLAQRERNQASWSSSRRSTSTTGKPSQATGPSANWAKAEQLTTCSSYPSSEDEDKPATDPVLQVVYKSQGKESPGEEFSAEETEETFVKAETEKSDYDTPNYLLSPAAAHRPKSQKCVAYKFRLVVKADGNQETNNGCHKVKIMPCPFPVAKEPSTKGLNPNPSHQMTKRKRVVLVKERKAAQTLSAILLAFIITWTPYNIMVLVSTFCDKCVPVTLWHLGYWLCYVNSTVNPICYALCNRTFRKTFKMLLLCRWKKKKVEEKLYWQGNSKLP
Assay: accumulation of IPX, M5 CHO cells (M5Gq)
Assay type: cell-based
Parameters: host or cells: CHO cells, stably transfected
Conditions: M5 (↑IPX), preferential response, Table 7
Kind request: treat 2 fold over basal as inclusive, so E′MAX at 2 fold over basal or higher is Yes, anything lower is No.

Take a look at these entries with their results.
Compound	Target Of Assay	Group Label
C1=CCN(Cc2cccs2)CC1.Cl	M5 muscarinic receptor (Homo sapiens, UniProt P08912)	No
Cc1ccc(C[N+]2(C)CC=CCC2)s1.[I-] (centres unmarked)	M5 muscarinic receptor (Homo sapiens, UniProt P08912)	No
O=C1CCCN1CC#CCN1CCCC1 [oxotremorine, reference compound]	M5 muscarinic receptor (Homo sapiens, UniProt P08912)	Yes

In: Tell me whether E′MAX is at least 2 fold over basal here: C[N+]1(Cc2ccc(Cl)s2)CC=CCC1.[I-] (centres unmarked)
Out: Yes

In: Answer whether E′MAX of C[N+]1(Cc2cccs2)CC=CCC1.[I-] (centres unmarked) is greater than or equal to 2 fold over basal.
Out: No

In: Is the recorded value of E′MAX equal to or greater than 2 fold over basal for this compound? C[N+]1(Cc2ccc(Br)s2)CC=CCC1.[I-] (centres unmarked)
Out: No

In: Identify whether the reported E′MAX of the following compound is 2 fold over basal or greater: Brc1ccc(CN2CC=CCC2)s1.Cl
Out: No

In: Answer whether E′MAX of Cc1ccc(CN2CC=CCC2)s1.Cl is greater than or equal to 2 fold over basal.
Out: No

###

Biological target: M5 muscarinic receptor (Homo sapiens)
Sequence (P08912 1-532): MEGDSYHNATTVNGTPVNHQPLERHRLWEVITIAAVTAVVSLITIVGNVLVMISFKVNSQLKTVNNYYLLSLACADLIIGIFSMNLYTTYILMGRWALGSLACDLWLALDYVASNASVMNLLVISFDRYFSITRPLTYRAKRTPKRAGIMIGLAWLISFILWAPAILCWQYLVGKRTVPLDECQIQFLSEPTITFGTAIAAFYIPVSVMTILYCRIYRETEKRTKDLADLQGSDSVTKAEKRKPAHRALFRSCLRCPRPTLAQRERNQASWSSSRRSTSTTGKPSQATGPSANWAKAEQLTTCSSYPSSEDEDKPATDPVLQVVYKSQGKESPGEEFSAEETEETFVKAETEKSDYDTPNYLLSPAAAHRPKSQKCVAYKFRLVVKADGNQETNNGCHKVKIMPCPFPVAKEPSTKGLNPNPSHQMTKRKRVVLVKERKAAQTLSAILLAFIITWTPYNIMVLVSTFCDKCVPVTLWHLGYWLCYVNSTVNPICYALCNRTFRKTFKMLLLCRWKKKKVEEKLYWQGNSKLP
Test: accumulation of IPX, M5 CHO cells transfected with G15 (M5Gq+G15)
Format: cell-based
Parameters: expressed in transfected cells; host or cells: CHO cells
Settings: Table 8
Test Readout: E′MAX (fold over basal)
Reply with just the number (in fold over basal).

In: Supply reported E′MAX belonging to this compound: C[N+]1(Cc2cccs2)CC=CCC1.[I-] (stereo not shown)
Out: 1.28

In: Give the reported value of E′MAX for this record: O=C1CCCN1CC#CCN1CCCC1 [oxotremorine, reference compound]
Out: 16

In: Given the compound C[N+](C)(C)CCOC(N)=O [carbachol, reference compound] , write its reported E′MAX.
Out: 17

In: Identify measured E′MAX associated with C1=CCN(Cc2cccs2)CC1.Cl
Out: 1.19

###

molecular target: M1 muscarinic receptor (Homo sapiens); assay: accumulation of IPX, M1 CHO cells transfected with G15 (M1Gq+G15); type: cell-based; set-up: host or cells: CHO cells
Sequence (P11229 whole entry): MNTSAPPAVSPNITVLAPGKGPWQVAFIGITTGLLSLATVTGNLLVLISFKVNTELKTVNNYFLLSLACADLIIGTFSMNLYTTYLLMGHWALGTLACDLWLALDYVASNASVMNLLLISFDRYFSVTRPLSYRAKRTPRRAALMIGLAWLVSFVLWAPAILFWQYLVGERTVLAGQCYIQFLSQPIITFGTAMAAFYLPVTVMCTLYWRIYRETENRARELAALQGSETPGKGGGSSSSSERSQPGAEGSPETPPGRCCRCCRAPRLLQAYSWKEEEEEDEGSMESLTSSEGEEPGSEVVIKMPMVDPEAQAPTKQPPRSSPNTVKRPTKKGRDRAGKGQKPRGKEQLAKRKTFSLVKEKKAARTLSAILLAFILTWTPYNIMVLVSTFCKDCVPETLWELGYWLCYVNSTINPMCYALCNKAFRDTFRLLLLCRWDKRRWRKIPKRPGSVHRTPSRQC
Test Readout: Kd (nM)
Kindly answer with a numeric value in nM, unit omitted.

In: For the compound O=C1CCCN1CC#CCN1CCCC1 [oxotremorine, reference compound] , give its measured Kd value.
Out: 200

###

target: M2 muscarinic receptor (Homo sapiens, UniProt P08172); assay: [3H]NMS competition binding, M2 CHO membranes; design: host or cells: CHO cells, stably transfected; conditions: Inhibition constants Ki, at M2 receptors
Sequence (P08172 whole entry): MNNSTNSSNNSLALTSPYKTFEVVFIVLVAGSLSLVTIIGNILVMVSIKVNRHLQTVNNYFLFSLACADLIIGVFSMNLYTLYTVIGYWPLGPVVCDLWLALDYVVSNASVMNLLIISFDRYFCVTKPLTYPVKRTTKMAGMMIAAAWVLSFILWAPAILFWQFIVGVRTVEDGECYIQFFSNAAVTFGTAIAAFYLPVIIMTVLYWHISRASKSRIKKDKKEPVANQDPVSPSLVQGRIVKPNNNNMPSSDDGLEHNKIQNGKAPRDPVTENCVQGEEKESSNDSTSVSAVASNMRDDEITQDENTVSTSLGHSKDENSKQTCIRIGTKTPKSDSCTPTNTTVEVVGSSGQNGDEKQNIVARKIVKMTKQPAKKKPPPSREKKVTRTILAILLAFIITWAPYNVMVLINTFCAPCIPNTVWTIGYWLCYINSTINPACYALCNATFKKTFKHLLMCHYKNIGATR
Test Readout: Ki (nM)
Report as a plain number; the unit nM is understood.

In: Please give the documented Ki of C[N+]1(Cc2ccc(Cl)s2)CC=CCC1.[I-] (stereo not shown)
Out: 700

###

biological target: M3 muscarinic receptor (Homo sapiens, UniProt P20309); assay: accumulation of IPX, M3 CHO cells transfected with G15 (M3Gq+G15); format: cell-based; set-up: host or cells: CHO cells
Sequence (P20309 whole entry): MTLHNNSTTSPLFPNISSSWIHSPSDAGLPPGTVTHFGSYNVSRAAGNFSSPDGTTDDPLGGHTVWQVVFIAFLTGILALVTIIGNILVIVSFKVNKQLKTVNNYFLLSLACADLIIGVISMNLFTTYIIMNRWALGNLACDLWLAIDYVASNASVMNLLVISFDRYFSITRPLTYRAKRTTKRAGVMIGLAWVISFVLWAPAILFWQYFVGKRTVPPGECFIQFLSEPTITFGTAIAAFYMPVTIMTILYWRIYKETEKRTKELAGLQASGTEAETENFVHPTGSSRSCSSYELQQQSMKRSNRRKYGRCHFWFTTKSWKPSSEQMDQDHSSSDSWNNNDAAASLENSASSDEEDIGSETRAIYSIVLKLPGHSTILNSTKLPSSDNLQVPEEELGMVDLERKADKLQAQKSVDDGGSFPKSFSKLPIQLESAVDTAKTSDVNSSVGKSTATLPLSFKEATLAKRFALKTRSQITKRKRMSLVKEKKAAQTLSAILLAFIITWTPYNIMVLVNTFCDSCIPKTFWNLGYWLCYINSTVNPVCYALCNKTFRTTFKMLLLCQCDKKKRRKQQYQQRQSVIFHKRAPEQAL
Test Readout: pEC50
Convention used: pEC50 is expressed as -log10 of the molar concentration.

In: Provide only the value of recorded pEC50 for O=C1CCCN1CC#CCN1CCCC1 [oxotremorine, reference compound]
Out: 7.00

###

Item-by-item account of Emax
Molecular target: M4 muscarinic receptor (Homo sapiens)
Sequence (P08173 1-479): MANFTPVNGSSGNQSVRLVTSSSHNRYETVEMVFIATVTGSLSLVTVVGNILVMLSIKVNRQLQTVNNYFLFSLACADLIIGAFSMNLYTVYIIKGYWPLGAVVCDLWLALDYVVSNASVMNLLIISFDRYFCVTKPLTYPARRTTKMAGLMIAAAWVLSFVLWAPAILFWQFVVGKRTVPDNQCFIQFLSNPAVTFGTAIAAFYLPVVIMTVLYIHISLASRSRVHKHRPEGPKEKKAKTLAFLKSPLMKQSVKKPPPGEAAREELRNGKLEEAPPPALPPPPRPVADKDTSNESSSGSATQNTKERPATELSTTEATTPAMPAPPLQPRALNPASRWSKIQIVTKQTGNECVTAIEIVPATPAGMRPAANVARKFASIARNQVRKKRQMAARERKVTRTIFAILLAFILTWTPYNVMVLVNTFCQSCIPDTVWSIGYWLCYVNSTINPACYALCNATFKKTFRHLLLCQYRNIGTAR
Experiment: inhibition of forskolin-stimulated cAMP, M4 CHO cells (M4Gi)
Type: cell-based
Parameters: host or cells: CHO cells, stably transfected
Conditions: CHO; M4 (↓cAMP), preferential response, Table 7; read-out: E′MAX
Numbers only; they are read as %.

Reference set (3 entries):
Molecule	Numeric Value
Cc1ccc(C[N+]2(C)CC=CCC2)s1.[I-] (centres unmarked)	30
Brc1ccc(CN2CC=CCC2)s1.Cl	13
C1=CCN(Cc2cccs2)CC1.Cl	25

In: Fill: Emax (M4 muscarinic receptor (Homo sapiens)) for this molecule Cc1ccc(CN2CC=CCC2)s1.Cl
Out: 25

In: Give Emax only, for C[N+]1(Cc2cccs2)CC=CCC1.[I-] (centres unmarked) , using M4 muscarinic receptor (Homo sapiens) data.
Out: 39
